Reference for the values: BigSolDB 2.1

settings: in n-propanol, 295.65 K
Measure Name: solubility (mole fraction)
Output spec: single numeric token, no unit.

*Q* Which measured solubility (mole fraction) value corresponds to `O=[N+]([O-])c1ccc(O)c2ncccc12` ?
*A* 0.00109

====

conditions: in acetonitrile, 283.15 K
Measure Name: solubility (mole fraction)
Output spec: single numeric token, no unit.

*Q* Which measured solubility (mole fraction) value corresponds to `O=[N+]([O-])c1ccc(O)c2ncccc12` ?
*A* 0.00137

====

conditions: in ethanol, 283.15 K
Measure Name: solubility (mole fraction)

*Q* Which measured solubility (mole fraction) value corresponds to `O=[N+]([O-])c1ccc(O)c2ncccc12` ?
*A* 0.000682
